Biological target: Savinase Ultra 16.0L (Lederbergia lenta)
Construct: purchased Sigma-Aldrich
Experiment: protease storage stability in liquid formulation (Suc-AAPF-pNA substrate)
Format: biochemical
Conditions: base formulation V., 2.0 wt % component (a), storage at 37° C., 3 d
Experimental: Base test formulations were manufactured by making base formulations I to V by mixing the components according to Table 1. Protease used: (S) Savinase Ultra 16.0L (CAS-No. 9014-01-1, EC-No. 232-752-2) was purchased from Sigma-Aldrich […] The proteolytic activity values provided in Table 3 were calculated referring to the value determined in the reference formulation at the time 0. […]
Assignment: determine reported protease activity, referring to reference formulation at time 0 for the given molecules.
Numbers only.

Field: protease activity, referring to reference formulation at time 0. Fill in for each record below.
1. CCCCOC(=O)CC(CC(=O)OCCCC)(OC(C)=O)C(=O)OCCCC [A.4, Acetyltributylcitrate]
2. CCOC(=O)CC(O)(CC(=O)OCC)C(=O)OCC [A.1, Triethylcitrate]
3. O=C(CC(O)(CC(=O)OCc1ccccc1)C(=O)OCc1ccccc1)OCc1ccccc1 [A.8, Tribenzylcitrate]
4. CCCOC(=O)CC(O)(CC(=O)OCCC)C(=O)OCCC [A.2, Tripropylcitrate]

**Result**
1. 94
2. 94
3. 96
4. 95

====

Target: Savinase Ultra 16.0L (Lederbergia lenta, UniProt P29600)
Construct: purchased Sigma-Aldrich
Sequence (P29600 whole entry): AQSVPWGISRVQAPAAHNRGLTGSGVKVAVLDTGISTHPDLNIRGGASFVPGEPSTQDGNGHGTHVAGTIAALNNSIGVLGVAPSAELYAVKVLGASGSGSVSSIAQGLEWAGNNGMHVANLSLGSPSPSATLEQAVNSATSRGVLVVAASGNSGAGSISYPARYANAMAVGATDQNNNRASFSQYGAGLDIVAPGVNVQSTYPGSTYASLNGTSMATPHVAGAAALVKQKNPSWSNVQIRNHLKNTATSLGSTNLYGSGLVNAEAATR
Experiment: protease storage stability in liquid formulation (Suc-AAPF-pNA substrate)
Format: biochemical
Conditions: base formulation III., 1.5 wt % component (a), storage at 37° C., 21 d
metric.name: protease activity, referring to reference formulation at time 0
Answers are plain numbers.

Past entries and their recorded results:
{"compound": "CCCCOC(=O)CC(CC(=O)OCCCC)(OC(C)=O)C(=O)OCCCC [A.4, Acetyltributylcitrate]", "reported.value": 86}
{"compound": "CCOC(=O)CC(O)(CC(=O)OCC)C(=O)OCC [A.1, Triethylcitrate]", "reported.value": 85}
{"compound": "CCOC(=O)CC(CC(=O)OCC)(OC(C)=O)C(=O)OCC [A.5, Acetyltriethylcitrate]", "reported.value": 79}

Here is the next item to consider.
**Query** Query: protease activity, referring to reference formulation at time 0; subject: CCCOC(=O)CC(O)(CC(=O)OCCC)C(=O)OCCC [A.2, Tripropylcitrate]
**Result** 88

====

Molecular target: Savinase Ultra 16.0L (Lederbergia lenta)
Construct: purchased Sigma-Aldrich
Experiment: protease storage stability in liquid formulation (Suc-AAPF-pNA substrate)
Assay type: biochemical
Details: base formulation II., 1.5 wt % component (a), storage at 37° C., 3 d
Assignment: determine reported protease activity, referring to reference formulation at time 0 for the given molecules.
Numbers only.

{"molecule": "CCCOC(=O)CC(O)(CC(=O)OCCC)C(=O)OCCC [A.2, Tripropylcitrate]", "reported.value": 100}
{"molecule": "CCCCOC(=O)CC(CC(=O)OCCCC)(OC(C)=O)C(=O)OCCCC [A.4, Acetyltributylcitrate]", "reported.value": 100}
{"molecule": "O=C(CC(O)(CC(=O)OCc1ccccc1)C(=O)OCc1ccccc1)OCc1ccccc1 [A.8, Tribenzylcitrate]", "reported.value": 94}

Here is the next item to consider.
**Query** Return protease activity, referring to reference formulation at time 0 measured with Savinase Ultra 16.0L (Lederbergia lenta) given this molecule: CCOC(=O)CC(O)(CC(=O)OCC)C(=O)OCC [A.1, Triethylcitrate]
**Result** 99

Data provenance is patent US20220112479A1.
